Overview of reported pIC50 across a group of compounds:
Measured target: PEPT-1 (Homo sapiens)
Construct: allowed to differentiate for at least 7 d to ensure sufficient PEPT-1 expression
Sequence (P46059 whole entry): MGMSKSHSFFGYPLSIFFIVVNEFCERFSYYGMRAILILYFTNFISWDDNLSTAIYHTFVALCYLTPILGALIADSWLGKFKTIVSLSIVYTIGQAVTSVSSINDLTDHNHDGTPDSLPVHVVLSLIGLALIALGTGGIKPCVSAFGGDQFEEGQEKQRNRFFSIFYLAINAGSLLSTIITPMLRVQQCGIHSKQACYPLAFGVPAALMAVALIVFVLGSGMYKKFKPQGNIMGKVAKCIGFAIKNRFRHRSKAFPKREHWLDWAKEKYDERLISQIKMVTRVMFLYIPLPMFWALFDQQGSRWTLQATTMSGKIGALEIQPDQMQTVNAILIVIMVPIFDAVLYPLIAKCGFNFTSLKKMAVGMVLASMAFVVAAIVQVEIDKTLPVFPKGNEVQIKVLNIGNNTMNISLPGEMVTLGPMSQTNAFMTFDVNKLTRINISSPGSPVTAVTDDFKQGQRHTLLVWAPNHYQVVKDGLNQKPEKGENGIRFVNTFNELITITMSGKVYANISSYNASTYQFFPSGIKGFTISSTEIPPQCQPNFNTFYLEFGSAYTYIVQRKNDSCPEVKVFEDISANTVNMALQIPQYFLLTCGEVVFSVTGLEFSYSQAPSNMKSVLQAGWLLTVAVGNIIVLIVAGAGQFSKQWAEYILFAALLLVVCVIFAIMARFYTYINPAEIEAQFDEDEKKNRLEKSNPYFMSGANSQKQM
Method summary: Inhibition of PEPT-1 mediated Gly-Sar uptake in Caco-2 cells (UPLC-MS/MS quantification of intracellular Gly-Sar)
Recorded conditions: Caco-2 cells, 7 d differentiation, 20 µM Gly-Sar, 10 min, 37 °C, pH = 6.0, three independent experiments
Residues, ends and D or L forms follow the SMILES beside them.
Reminder that pIC50 means the negative base-10 logarithm of the concentration expressed in mol/L.

Look over these answered cases.
Incoming: Reported pIC50, compound CC(C)[C@H](N)C(=O)OCCOCn1cnc2c(=O)[nH]c(N)nc21 : ____
Outgoing: 3.05

Incoming: Reported pIC50, compound NCC(=O)N1CCC[C@H]1C(=O)O [Gly-Pro, glycyl-proline] (H-Gly-Pro-OH) : ____
Outgoing: 3.59

---
Incoming: Reported pIC50, compound CCCCc1nc(Cl)c(CO)n1Cc1ccc(-c2ccccc2-c2nn[nH]n2)cc1 : ____
Outgoing: 4.35
